Method summary: In vivo pharmacokinetic parameter, half-life (t1/2) was measured in dog after 1 mg/kg iv administration
Property: half-life (h)
Entry rule: numbers only, all in h.

Input line: Fill in reported half-life for this entry: CCO/N=C(\c1ccc(Br)cc1)C1CCN(C2(C)CCN(C(=O)c3c(C)cc[n+]([O-])c3C)CC2)CC1 [ANCRIVIROC]
Output line: 10

====

Method summary: In vivo pharmacokinetic parameter, half-life (t1/2) was measured in rat after 10 mg/kg iv administration
Type: ADME, organism-based
Set-up: dose 10 mg/kg, route intravenous
Property: half-life (h)
Entry rule: numbers only, all in h.

Input line: Fill in reported half-life for this entry: CCO/N=C(\c1ccc(Br)cc1)C1CCN(C2(C)CCN(C(=O)c3c(C)cc[n+]([O-])c3C)CC2)CC1
Output line: 5
